Assayed system: K-Ras G13C (Homo sapiens (Human), UniProt P01116+P62937, G13C)
Sequence (P01116-2 other isoform, or with tags, fused parts or gaps G13C, one chain of several): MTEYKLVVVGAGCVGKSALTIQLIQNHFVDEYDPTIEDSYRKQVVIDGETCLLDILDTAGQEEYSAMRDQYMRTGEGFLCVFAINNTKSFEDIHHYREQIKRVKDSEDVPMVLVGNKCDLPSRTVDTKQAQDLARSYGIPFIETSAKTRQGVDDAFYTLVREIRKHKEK
Test: Ras-Raf (BRAF RBD) disruption / FRET / MOA assay, KRAS G13C
Assay type: biochemical
Test settings: KRAS G13C; Ras-Raf disruption/FRET/MOA assay; read-out: IC50* KRAS G13C FRET data
pIC50: −log10 of the molar value.
The entries below are paired with their reported pIC50.
Measurement name: pIC50

* C=CC(=O)N1CC[C@H](C(=O)N(C)[C@H](C(=O)N[C@H]2CC3=NN=C(S3)c3ccc4c(c3)c(c(-c3cccnc3COC)n4CC)CC(C)(C)COC(=O)[C@@H]3CCCN(N3)C2=O)C(C)C)C1 [Example A236] | < 5.00
* CCn1c(-c2cccnc2[C@H](C)OC)c2c3cc(ccc31)-c1csc(n1)C[C@H](NC(=O)[C@H](F)COC1CN(C(=O)C#CC(C)(C)N(C)C)C1)C(=O)N1CCC[C@H](N1)C(=O)OCC(C)(C)C2 (atropisomer, axis not shown) [Example A627] | < 5.00

* * *

Assayed system: KRAS G12V (Homo sapiens (Human), UniProt P01116+P62937, G12V)
Sequence (P01116-2 other isoform, or with tags, fused parts or gaps G12V, one chain of several): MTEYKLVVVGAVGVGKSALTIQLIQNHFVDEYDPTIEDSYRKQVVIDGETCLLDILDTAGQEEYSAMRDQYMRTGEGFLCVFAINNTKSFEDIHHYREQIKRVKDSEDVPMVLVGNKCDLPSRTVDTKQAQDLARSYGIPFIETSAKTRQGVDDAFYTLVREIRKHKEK
Test: Ras-Raf (BRAF RBD) disruption / FRET / MOA assay, KRAS G12V
Assay type: biochemical
Test settings: read-out: IC50* KRAS G12V FRET data
pIC50: −log10 of the molar value.
Examples of compounds with documented pIC50 follow.
Measurement name: pIC50

• C=CC(=O)N1CC2(CCN2C(=O)N(C)[C@H](C(=O)N[C@H]2Cc3cccc(c3)-c3ccc4c(c3)c(c(-c3cccnc3[C@H](C)OC)n4CC)CC(C)(C)COC(=O)[C@@H]3CCCN(N3)C2=O)C(C)C)C1 (atropisomer, axis not shown) = 6.00 to 7.00
• C=CS(=O)(=O)N1CCC(C(=O)N(C)[C@H](C(=O)N[C@H]2Cc3cccc(c3)-c3ccc4c(c3)c(c(-c3cncnc3)n4CC)CC(C)(C)COC(=O)[C@@H]3CCCN(N3)C2=O)C(C)C)C1 (single isomer, unassigned) = < 5.00

* * *

Assayed system: NRAS Q61K (Homo sapiens (Human), UniProt P01111+P62937, Q61K)
Sequence (P01111 whole entry Q61K): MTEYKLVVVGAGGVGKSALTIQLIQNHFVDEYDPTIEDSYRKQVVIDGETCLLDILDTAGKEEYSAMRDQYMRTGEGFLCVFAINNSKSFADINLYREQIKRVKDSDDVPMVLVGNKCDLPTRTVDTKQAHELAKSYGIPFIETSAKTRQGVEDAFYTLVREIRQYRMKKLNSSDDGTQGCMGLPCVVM
Sequence (P62937 whole entry): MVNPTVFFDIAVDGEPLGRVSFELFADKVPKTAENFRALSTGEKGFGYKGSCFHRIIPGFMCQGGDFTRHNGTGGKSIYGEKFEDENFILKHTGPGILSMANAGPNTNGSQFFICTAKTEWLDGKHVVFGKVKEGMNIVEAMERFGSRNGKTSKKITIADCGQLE
Test: Ras-Raf (BRAF RBD) disruption / FRET / MOA assay, NRAS Q61K
Assay type: biochemical
Test settings: NRAS Q61K; Ras-Raf disruption/FRET/MOA assay; read-out: IC50* NRAS Q61K FRET data
Below: a set of entries, each annotated with reported IC50.
Measurement name: IC50

• CCn1c(-c2cccnc2[C@H](C)OC)c2c3cc(ccc31)-c1csc(n1)C[C@H](NC(=O)[C@@H](F)COC1CN(C(=O)C#CC(C)(C)N(C)C)C1)C(=O)N1CCC[C@H](N1)C(=O)OCC(C)(C)C2 (atropisomer, axis not shown) = 1 to 10 µM
• C=CC(=O)N1CC[C@@H]2[C@H]1CN2C(=O)N(C)[C@H](C(=O)N[C@H]1Cc2nc(cs2)-c2ccc3c(c2)c(c(-c2cccnc2[C@H](C)OC)n3CC)CC(C)(C)COC(=O)[C@@H]2CCCN(N2)C1=O)C(C)C (atropisomer, axis not shown) = 0.1 to 1 µM
• C=CC(=O)N1CCC(F)(C(=O)N(C)[C@H](C(=O)N[C@H]2Cc3nc(cs3)-c3ccc4c(c3)c(c(-c3cccnc3[C@H](C)OC)n4CC)CC(C)(C)COC(=O)[C@@H]3CCCN(N3)C2=O)C(C)C)CC1 (atropisomer, axis not shown) = 0.1 to 1 µM
• C=CC(=O)N1CCO[C@H]2CN(C(=O)N(C)[C@H](C(=O)N[C@H]3Cc4cccc(c4)-c4ccc5c(c4)c(c(-c4cccnc4[C@H](C)OC)n5CC)CC(C)(C)COC(=O)[C@@H]4CCCN(N4)C3=O)C(C)C)C[C@H]21 (atropisomer, axis not shown) = 0.1 to 1 µM
• CO[C@@H](C)c1ncccc1-c1c2c3cc(ccc3n1CC(F)(F)F)-c1nc(nn1C)C[C@H](NC(=O)[C@H](C(C)C)N(C)C(=O)C1(F)CCN(C(=O)C#CC(C)(C)N(C)C)CC1)C(=O)N1CCC[C@H](N1)C(=O)OCC(C)(C)C2 (atropisomer, axis not shown) = 0.01 to 0.1 µM
• CO[C@@H](C)c1ncccc1-c1c2c3cc(ccc3n1CC(F)(F)F)-c1cccc(c1)C[C@H](NC(=O)[C@H](C(C)C)N(C)C(=O)[C@H]1CCN(C(=O)C#CC(C)(C)N(C)C)C1)C(=O)N1CCC[C@H](N1)C(=O)OCC(C)(C)C2 (atropisomer, axis not shown) = 1 to 10 µM
• C=CC(=O)N(C)[C@@H]1CCN(C(=O)N(C)[C@H](C(=O)N[C@H]2Cc3nc(cs3)-c3ccc4c(c3)c(c(-c3cccnc3[C@H](C)OC)n4CC)CC(C)(C)COC(=O)[C@@H]3CCCN(N3)C2=O)C(C)C)C1 (atropisomer, axis not shown) = 0.01 to 0.1 µM
• C=CC(=O)N1CCO[C@@H]2CCN(C(=O)N(C)[C@H](C(=O)N[C@H]3Cc4nc(cs4)-c4ccc5c(c4)c(c(-c4cccnc4[C@H](C)OC)n5CC)CC(C)(C)COC(=O)[C@@H]4CCCN(N4)C3=O)C(C)C)CC21 (some centres unmarked) = 0.01 to 0.1 µM

* * *

System: NCI-H358 cells (K-Ras G12C)
Test: Potency assay: pERK in NCI-H358 cells
Format: cell-based, human
Test settings: Homo sapiens, NCI-H358; H358 KRAS G12C; read-out: pERK EC50
Each entry below lists one item and its recorded EC50 value.
Measurement name: EC50

- C=CC(=O)N1CC[C@H](C(=O)N(C)[C@H](C(=O)N[C@H]2Cc3csc(n3)-c3ccc4c(c3)c(c(-c3cc(N5CCN(C)CC5)cnc3[C@H](C)OC)n4CC(F)(F)F)CC(C)(C)COC(=O)[C@@H]3CCCN(N3)C2=O)C(C)C)C1 [Example A410]: < 5 µM
- C=CC(=O)N1CCOC2(CCN(C(=O)N(C)[C@H](C(=O)N[C@H]3Cc4cccc(c4)-c4ccc5c(c4)c(c(-c4cccnc4[C@H](C)OC)n5CC(F)(F)F)CC(C)(C)COC(=O)[C@@H]4CCCN(N4)C3=O)C(C)C)CC2)C1 (atropisomer, axis not shown) [Example A608]: < 5 µM

* * *

Assayed system: KRAS G12D (Homo sapiens (Human), UniProt P01116+P62937, G12D)
Sequence (P01116-2 other isoform, or with tags, fused parts or gaps G12D, one chain of several): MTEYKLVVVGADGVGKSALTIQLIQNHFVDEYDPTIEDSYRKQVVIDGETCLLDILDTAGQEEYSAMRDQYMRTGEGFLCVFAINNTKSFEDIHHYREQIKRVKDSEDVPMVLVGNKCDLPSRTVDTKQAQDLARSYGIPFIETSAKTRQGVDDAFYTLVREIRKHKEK
Test: Ras-Raf (BRAF RBD) disruption / FRET / MOA assay, KRAS G12D
Assay type: biochemical
Test settings: Ras-Raf disruption/FRET/MOA assay; class symbols; read-out: KRAS G12D FRET data IC50
Measurement name: IC50

* CCn1c(-c2cccnc2[C@H](C)OC)c2c3cc(ccc31)-c1csc(n1)C[C@H](NC(=O)[C@H](C(C)C)N(C)C(=O)N(C)C1CN(C(=O)/C=C/[C@@H]3CCCN3C)C1)C(=O)N1CCC[C@H](N1)C(=O)OCC(C)(C)C2 (atropisomer, axis not shown) [Example A730] | 1 to 10 µM
* CCn1c(-c2cccnc2COC)c2c3cc(ccc31)-c1cccc(c1)C[C@H](NC(=O)[C@H](C(C)C)N(C)C(=O)[C@H]1CCN(C(=O)C#CCN(C)C)C1)C(=O)N1CCC[C@H](N1)C(=O)OCC(C)(C)C2 (atropisomer, axis not shown) [Example A138] | 1 to 10 µM
* CCn1c(-c2cccnc2[C@H](C)OC)c2c3cc(ccc31)-c1cc(O)cc(c1)C[C@H](NC(=O)[C@H](C(C)C)N(C)C(=O)[C@H]1CCN(C(=O)C#CCOC)C1)C(=O)N1CCC[C@H](N1)C(=O)OCC(C)(C)C2 [Example A266] | 0.1 to 1 µM
* CCn1c(-c2cnccc2[C@H](C)OC)c2c3cc(ccc31)-c1cccc(c1)C[C@H](NC(=O)[C@H](C(C)C)N(C)C(=O)[C@H]1CCN(C(=O)C#CCN(C)C)C1)C(=O)N1CCC[C@H](N1)C(=O)OCC(C)(C)C2 [Example A140] | 1 to 10 µM

* * *

Assayed system: NRAS G12C (Homo sapiens (Human), UniProt P01111+P62937, G12C)
Sequence (P01111 whole entry G12C, one chain of several): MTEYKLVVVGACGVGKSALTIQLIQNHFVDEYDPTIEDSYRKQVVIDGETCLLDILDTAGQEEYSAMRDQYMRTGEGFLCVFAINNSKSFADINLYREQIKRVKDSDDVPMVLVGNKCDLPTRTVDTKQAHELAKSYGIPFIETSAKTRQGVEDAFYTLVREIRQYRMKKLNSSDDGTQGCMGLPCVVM
Test: Ras-Raf (BRAF RBD) disruption / FRET / MOA assay, NRAS G12C
Format: biochemical
Test settings: read-out: IC50* NRAS G12C FRET data
pIC50: −log10 of the molar value.
Each item that follows carries a reported pIC50.
Measurement name: pIC50

• C=CC(=O)N1CCN(C(=O)N(C)[C@H](C(=O)N[C@H]2Cc3nc(cs3)-c3ccc4c(c3)c(c(-c3cccnc3[C@H](C)OC)n4CC(F)(F)F)CC(C)(C)COC(=O)[C@@H]3CCCN(N3)C2=O)C(C)C)CC12CC2 (atropisomer, axis not shown) = 7.00 to 8.00
• CCn1c(-c2cccnc2[C@H](C)OC)c2c3cc(ccc31)-c1csc(n1)C[C@H](NC(=O)CCO[C@@H]1CCN(C(=O)C#CC(C)(C)N3CCC3)C1)C(=O)N1CCC[C@H](N1)C(=O)OCC(C)(C)C2 (atropisomer, axis not shown) = 6.00 to 7.00
• CCn1c(-c2cccnc2COC)c2c3cc(ccc31)-c1cc(O)cc(c1)C[C@H](NC(=O)[C@@H](C(C)C)N(C)C(=O)[C@H]1CCN(C(=O)C#CCN3CCOCC3)C1)C(=O)N1CCC[C@H](N1)C(=O)OCC(C)(C)C2 = 7.00 to 8.00
• CCn1c(-c2cccnc2[C@H](C)OC)c2c3cc(ccc31)-c1cccc(c1)C[C@H](NC(=O)[C@@H](COC1CN(C(=O)C#CC(C)(C)N(C)CCO)C1)C(C)C)C(=O)N1CCC[C@H](N1)C(=O)OCC(C)(C)C2 (atropisomer, axis not shown) = 7.00 to 8.00
